# Test system: Saccharomyces cerevisiae
# PROCEDURE SUMMARY: protein stability index of tFT-peptide fusion (C-terminal peptide) (PSI (0-1 scale)); higher = more stable (slower turnover)
# EXPERIMENTAL PARAMETERS: genetic background: wild type; temperature: 30 C

SEQ STRING: LDAENNNKCSIM [RHB1 C-terminal 12 aa]
protein stability index: 0.758
--
SEQ STRING: YERERKLRGGKK [NOP14 C-terminal 12 aa]
protein stability index: 0.692
--
SEQ STRING: LVPEEEEETKDR [GRX5 C-terminal 12 aa]
protein stability index: 0.698
--
SEQ STRING: HLAQMKMEQLLK [APQ12 C-terminal 12 aa]
protein stability index: 0.67
--
SEQ STRING: DDEEATAMFKLE [IES1 C-terminal 12 aa]
protein stability index: 0.675
--
SEQ STRING: TFPLVMMKTTYY [YFR009W-A C-terminal 12 aa]
protein stability index: 0.697
--
SEQ STRING: PSYAVCDNILVT [YOL013W-B C-terminal 12 aa]
protein stability index: 0.653
--
SEQ STRING: DDAVNCNTSNCL [ZRC1 C-terminal 12 aa]
protein stability index: 0.698
--
SEQ STRING: EQFTRDFGQEGN [VPS4 C-terminal 12 aa]
protein stability index: 0.671
--
SEQ STRING: SIQWIWRYSFVY [YIR020C C-terminal 12 aa]
protein stability index: 0.44
--
SEQ STRING: EKKFKEILNIQW [PET112 C-terminal 12 aa]
protein stability index: 0.722
--
SEQ STRING: KLYKNSDFNSEK [RRG7 C-terminal 12 aa]
protein stability index: 0.694
--
SEQ STRING: LSNIITLCRIIV [PEX34 C-terminal 12 aa]
protein stability index: 0.319
--
SEQ STRING: LKDEKRGDNVLA [THS1 C-terminal 12 aa]
protein stability index: 0.67
--
SEQ STRING: GKTAADNIAKLY [OSM1 C-terminal 12 aa]
protein stability index: 0.619
--
SEQ STRING: KNLADIHKIMGF [MSW1 C-terminal 12 aa]
protein stability index: 0.709
--
SEQ STRING: RLLNLQKVIYST [LDB18 C-terminal 12 aa]
protein stability index: 0.493
--
SEQ STRING: EGIFPANYVELV [LSB3 C-terminal 12 aa]
protein stability index: 0.678
--
SEQ STRING: FASNKKVTASLR [AZR1 C-terminal 12 aa]
protein stability index: 0.687
--
SEQ STRING: GNAIREIKTYKY [GLY1 C-terminal 12 aa]
protein stability index: 0.658
--
SEQ STRING: DLEVKLKKHKKN [TRZ1 C-terminal 12 aa]
protein stability index: 0.676
--
SEQ STRING: ELKRKDALSKKI [COA2 C-terminal 12 aa]
protein stability index: 0.75
--
SEQ STRING: RREKRNKALKER [CGR1 C-terminal 12 aa]
protein stability index: 0.694
--
SEQ STRING: ADIMEKVHKWFA [PSE1 C-terminal 12 aa]
protein stability index: 0.665
--
SEQ STRING: KSPSITVNEFFH [RCN2 C-terminal 12 aa]
protein stability index: 0.734
--
SEQ STRING: DLVKAAAGSDNE [RRP15 C-terminal 12 aa]
protein stability index: 0.675
--
SEQ STRING: EFAKCEFETPAV [CKB1 C-terminal 12 aa]
protein stability index: 0.74
--
SEQ STRING: KTFKLLTNKWIH [YAR009C C-terminal 12 aa]
protein stability index: 0.587
--
SEQ STRING: LDMAVIDNTTHN [SDO1 C-terminal 12 aa]
protein stability index: 0.682
--
SEQ STRING: YEYHTEEDVMYA [YGR130C C-terminal 12 aa]
protein stability index: 0.684
